Cited source for all entries: patent US20230286919A1

Target: UniProt P12931
Sequence (P12931 whole entry): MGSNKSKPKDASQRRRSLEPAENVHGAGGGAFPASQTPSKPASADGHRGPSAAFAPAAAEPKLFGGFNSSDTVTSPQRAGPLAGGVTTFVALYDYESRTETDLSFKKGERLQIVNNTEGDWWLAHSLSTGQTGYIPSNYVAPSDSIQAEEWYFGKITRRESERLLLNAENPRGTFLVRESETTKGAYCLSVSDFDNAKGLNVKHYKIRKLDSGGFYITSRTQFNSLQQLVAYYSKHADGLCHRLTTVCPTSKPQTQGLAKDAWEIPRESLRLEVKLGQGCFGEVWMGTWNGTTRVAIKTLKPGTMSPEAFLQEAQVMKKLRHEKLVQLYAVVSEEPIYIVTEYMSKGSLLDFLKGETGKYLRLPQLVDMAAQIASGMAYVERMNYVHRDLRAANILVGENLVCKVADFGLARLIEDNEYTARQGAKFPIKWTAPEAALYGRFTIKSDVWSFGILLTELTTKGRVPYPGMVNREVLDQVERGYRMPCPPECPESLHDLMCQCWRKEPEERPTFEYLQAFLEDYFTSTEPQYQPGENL
Provide the reported IC50 of each item.

INSERT INTO measurements (molecule, target_or_system, result) VALUES
  ('C[C@@H]1CCC(c2cc3c4c(cncc4c2)[C@H](C)C3)=C1C=O [323-1, (15R,2R)-Delavatine A]', 'UniProt P12931', '> 20 µM');

Now for another entry.
So for C[C@@H]1CCC(c2cc3c4c(cncc4c2)[C@@H](C)C3)=C1C=O [323-2, (15S,2R)-Delavatine A] , the logged IC50 turned out to be > 20 µM

###

Test system MAPK9 (JNK2) (Homo sapiens, UniProt P45984), pIC50 listed for each of the compounds.
pIC50: −log10 of the molar value.

INSERT INTO assay_data (compound, result) VALUES
  ('C[C@@H]1CCC(c2cc3c4c(cncc4c2)[C@@H](C)C3)=C1C=O [323-2, (15S,2R)-Delavatine A]', '< 4.70');

Now for another entry.
So for C[C@@H]1CCC(c2cc3c4c(cncc4c2)[C@H](C)C3)=C1C=O [323-1, (15R,2R)-Delavatine A] , the logged pIC50 turned out to be < 4.70
